The reader will find reported CC50 values listed item by item below.
assay: NOVARTIS: Cytotoxicity against human hepatocellular carcinoma cell line (Huh7); format: toxicity, cell-based, Huh-7; conditions: Huh7 cells (hepatocellular carcinoma cell line)
assayMetric: CC50

compound | assayMetric | experimentalValue
Cc1ccc(N2C(N)=NC(N)=NC2(C)C)c(C)c1 | CC50 | > 100 µM
Clc1ccc(Nc2nc(Nc3ccc(Cl)cc3)c3ccccc3n2)cc1 | CC50 | 19.6 µM
O=C(CSc1nc2ccccc2c(=O)n1C1CC1)Nc1cc(C(F)(F)F)ccc1Cl | CC50 | > 100 µM
O=C1C=C(Nc2ccc(O)cc2)c2ccccc2C1=O | CC50 | 5.12 µM
CCCCN(CCCC)CCCNc1ncnc2c1[nH]c1ccc(Cl)cc12 | CC50 | 61.8 µM
O=C(NNc1nc(-c2cc3ccccc3oc2=O)cs1)c1ccccc1 | CC50 | > 10 µM
c1ccc(Nc2nc(-c3ccccn3)cs2)nc1 | CC50 | 18.6 µM
Cc1ccc(CN2C3CCCC2CC(NC(=O)Nc2cccc(F)c2)C3)cc1 (stereo unspecified) | CC50 | > 10 µM
CC(C)[C@@H](CO)Nc1ccnc2c(-c3ccccc3F)cnn12 | CC50 | > 10 µM
COc1cccc(CCN2Cc3ccc(C(=O)NC(C)C)cc3N=C2c2cccnc2)c1 | CC50 | > 10 µM
Cc1c2ccccc2cc(Cc2ccccc2)[n+]1C | CC50 | > 100 µM

---

assay: NOVARTIS: Cytotoxicity against human hepatocellular carcinoma cell line (Huh7); format: toxicity, cell-based, Huh-7; details: Huh7 cells (hepatocellular carcinoma cell line)

compound | CC50
CC(C)(C)CC(C)(C)Nc1c(-c2ccccc2OC(=O)c2ccccc2)nc2ccccn12 | > 1.26 µM
CCc1nnc2n1N(C(C)=O)C(c1ccc(Cl)c(Cl)c1)=C(C(C)=O)S2 | > 10 µM
O=C(O)CSc1nc2c(ccc3nsnc32)[nH]1 | > 10 µM
C1=C(c2ccccc2)CCN(c2ncnc3c2nc2n3CCCCC2)C1 | > 85.8 µM
Cc1ccc(-n2c(SCc3ccc(F)cc3)nnc2C(Cc2ccccc2)NC(=O)NC(C)(C)C)cc1 (stereo not given) | > 62.3 µM
COc1ccccc1Nc1nc(NCc2ccccc2)c2ccccc2n1 | 19.6 µM
COC(=O)CC(NS(=O)(=O)c1ccc(OC)cc1)c1ccc2c(c1)OCO2 (stereo not given) | > 10.3 µM
Fc1ccc(-c2c[n+](Cc3ccc(Cl)cc3)c3n2CCC3)cc1 | > 100 µM
CCCCN1C(=O)N(c2ccccc2C)C(C)(O)CC1(C)C (stereo not given) | > 10 µM
CCOc1ccc(-c2nc(NC(=O)CS(=O)(=O)c3ccccc3)sc2C)cc1 | > 100 µM
COc1ccc(C2N=C(N)N=C(N)N2c2ccc(C)cc2)cc1 (stereo not given) | > 10 µM
O=C(NCCC(c1ccccc1)c1ccccc1)c1cccc([N+](=O)[O-])c1 | > 10 µM
Cc1c(Cc2ccccc2)sc(N=Cc2ccc(Br)s2)c1C(N)=O | > 10 µM
CC(=O)c1ccc(OCCSc2nc3c(N)ncnc3[nH]2)cc1 | > 100 µM
CCOC(=O)C1=C(C)NC2=C(C(=O)CC(c3ccc(OC)c(OC)c3)C2)C1c1ccc(F)cc1 (stereo not given) | > 100 µM
CC(=O)c1ccc(N2CCN(Cc3cc(-c4ccnc5cc(Cl)ccc45)ccc3O)CC2)cc1 | > 100 µM
COc1cc([C@@H]2OC[C@@H]3[C@H]2CO[C@H]3c2cc(OC)c(O[C@@H]3O[C@H](CO)[C@@H](O)[C@H](O)[C@H]3O)c(OC)c2)cc(OC)c1O [ACANTHOSIDE B] | > 10 µM
CCN1c2ccc([N+](=O)[O-])cc2N(CC)C1(C)c1ccccc1 (stereo not given) | 67.6 µM
COc1cccc(C(=O)N(CCCC(C)Nc2cc(OC)cc3cccnc23)Cc2ccc(F)cc2)c1 (stereo not given) | 3.73 µM
CC(C)NC(=O)N1CCN(C(=O)C(Cc2c[nH]c3ccccc23)NC(=O)Nc2cccc(C#N)c2)CC1C (stereo not given) | > 10 µM
